The values you see were collected from ChEMBL document CHEMBL3856220.

test system: Leishmania amazonensis; test: Leishmanicidal activity against amastigote form of Leishmania amazonensis MHOM/Br/79/Maria infected in mouse J774 cells after 48 hrs by resazurin dye-based fluorometric method; type: functional, cell-based; details: J774, 48 h
readoutType: pIC50
// returns pIC50 (minus log10 of molar concentration), number only

Field: example entries. Status: answers known.
>  <compound>
CC(C)c1ccc2c(c1)C(=O)C[C@H]1[C@](C)(CNC(=O)c3ccccc3)CCC[C@]21C

>  <systemUnderTest>
Leishmania amazonensis

>  <pIC50>
5.52

$$$$
>  <compound>
CC(C)c1cc2c(cc1[N+](=O)[O-])[C@@]1(C)CCC[C@@](C)(CNC(=O)c3ccccc3)[C@@H]1CC2

>  <systemUnderTest>
Leishmania amazonensis

>  <pIC50>
5.46

$$$$
>  <compound>
CC(C)c1ccc2c(c1)CC[C@H]1[C@](C)(CNC(=O)c3ccccc3)CCC[C@]21C

>  <systemUnderTest>
Leishmania amazonensis

>  <pIC50>
5.30

$$$$
>  <compound>
CC(C)c1cc2c(cc1[N+](=O)[O-])[C@@]1(C)CCC[C@@](C)(CNC(=O)c3ccccc3)[C@@H]1CC2=O

>  <systemUnderTest>
Leishmania amazonensis

>  <pIC50>
5.43

$$$$

**Q:** GET /values?readout=pIC50&item= CCCCCCCCCCCCCCCCOP(=O)([O-])OCC[N+](C)(C)C
**A:** 4.78

====

experiment: Cytotoxicity against mouse J774 cells assessed as reduction of cell viability after 48 hrs by resazurin dye-based fluorometric method; type: toxicity
CC50 at 48 h by entry:

>  <compound>
CC(C)c1ccc2c(c1)CC[C@H]1[C@](C)(CNC(=O)c3ccccc3)CCC[C@]21C

>  <reported>
> 200 µM

$$$$

**Q:** GET /values?readout=CC50 at 48 h&item= CC(C)c1ccc2c(c1)C(=O)C[C@H]1[C@](C)(CNC(=O)c3ccccc3)CCC[C@]21C
**A:** > 200 µM

**Q:** GET /values?readout=CC50 at 48 h&item= CC(C)c1cc2c(cc1[N+](=O)[O-])[C@@]1(C)CCC[C@@](C)(CNC(=O)c3ccccc3)[C@@H]1CC2
**A:** > 200 µM

**Q:** GET /values?readout=CC50 at 48 h&item= CC(C)c1cc2c(cc1[N+](=O)[O-])[C@@]1(C)CCC[C@@](C)(CNC(=O)c3ccccc3)[C@@H]1CC2=O
**A:** > 200 µM
